// provenance: ChEMBL document CHEMBL4004828

# Test system: MCF7
# Test: Cytotoxicity against human MCF7 cells assessed as growth inhibition after 120 hrs by MTT assay
# Format: functional
# Condition context: MCF7, 120 h
Reported metric: GI50 (µM)
The answer is to be given in µM; state only the numeric part.

# Compound, GI50 / µM
data = [
    ("NS(=O)(=O)Oc1ccc2cc(-c3cc(F)c(F)c(F)c3)c(=O)oc2c1", 32.6),
    ("NS(=O)(=O)Oc1ccc2cc(-c3ccc(F)c(F)c3)c(=O)oc2c1", 30),
    ("NS(=O)(=O)Oc1ccc2cc(-c3ccc(NC(=O)Cc4cc(F)c(F)c(F)c4)cc3)c(=O)oc2c1", 31.3),
]

The record that follows has no GI50 shown yet.
Inquiry: Name the recorded GI50 of CC/C(=C(\c1ccccc1)c1ccc(OCCN(C)C)cc1)c1ccccc1 [TAMOXIFEN] , assay system MCF7.
Reply text: 6.8

###

Each item that follows carries a reported GI50.
# System: MDA-MB-231
# Test: Cytotoxicity against human MDA-MB-231 cells assessed as growth inhibition after 120 hrs by MTT assay
# Format: functional
# Condition context: MDA-MB-231, 120 h
The answer is to be given in µM; state only the numeric part.

# Given smiles, Value observed
records = [
    ("NS(=O)(=O)Oc1ccc2cc(-c3cc(F)c(F)c(F)c3)c(=O)oc2c1", 56.3),
    ("CC/C(=C(\\c1ccccc1)c1ccc(OCCN(C)C)cc1)c1ccccc1", 15.1),
    ("NS(=O)(=O)Oc1ccc2cc(-c3ccc(NC(=O)Cc4cc(F)c(F)c(F)c4)cc3)c(=O)oc2c1", 11.7),
]

The record that follows has no GI50 shown yet.
Inquiry: Retrieve GI50 measured for "NS(=O)(=O)Oc1ccc2cc(-c3ccc(F)c(F)c3)c(=O)oc2c1" and print it.
Reply text: 61.5

###

Target protein (sequence): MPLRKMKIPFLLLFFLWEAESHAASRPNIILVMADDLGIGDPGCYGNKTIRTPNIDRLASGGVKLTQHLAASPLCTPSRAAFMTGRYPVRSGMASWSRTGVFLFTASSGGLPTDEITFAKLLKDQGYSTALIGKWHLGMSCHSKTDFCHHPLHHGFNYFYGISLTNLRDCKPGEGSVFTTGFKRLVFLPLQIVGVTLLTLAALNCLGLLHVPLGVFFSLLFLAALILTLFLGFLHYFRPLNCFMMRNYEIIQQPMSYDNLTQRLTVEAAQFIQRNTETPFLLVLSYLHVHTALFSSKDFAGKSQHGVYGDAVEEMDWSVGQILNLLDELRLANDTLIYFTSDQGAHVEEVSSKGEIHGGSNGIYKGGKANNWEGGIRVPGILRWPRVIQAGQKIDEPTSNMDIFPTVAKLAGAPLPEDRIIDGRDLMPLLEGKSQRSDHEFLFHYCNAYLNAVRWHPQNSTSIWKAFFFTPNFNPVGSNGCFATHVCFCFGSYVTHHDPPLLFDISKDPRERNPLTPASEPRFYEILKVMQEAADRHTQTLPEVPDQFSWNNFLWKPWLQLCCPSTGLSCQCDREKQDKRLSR
Reported metric: IC50 (nM)
The answer is to be given in nM; state only the numeric part.

In the examples that follow, each entry is paired with its recorded IC50.
# Given smiles, Reported metric, Value observed
measured = [
    ("NS(=O)(=O)Oc1ccc2cc(-c3ccc(NC(=O)c4c(F)c(F)c(F)c(F)c4F)cc3)c(=O)oc2c1", "IC50", 230),
    ("NS(=O)(=O)Oc1ccc2cc(-c3ccc(NC(=O)c4ccccc4)cc3)c(=O)oc2c1", "IC50", 490),
    ("NS(=O)(=O)Oc1ccc2ccc(=O)oc2c1", "IC50", 1380),
]

Inquiry: Retrieve IC50 measured for "NS(=O)(=O)Oc1ccc2cc(-c3cc(F)c(F)c(F)c3)c(=O)oc2c1" and print it.
Reply text: 290

Inquiry: Retrieve IC50 measured for "NS(=O)(=O)Oc1ccc2cc(-c3ccc(NC(=O)Cc4ccc(F)c(C(F)(F)F)c4)cc3)c(=O)oc2c1" and print it.
Reply text: 380

Inquiry: Retrieve IC50 measured for "NS(=O)(=O)Oc1ccc2cc(-c3ccc(NC(=O)Cc4c(F)c(F)c(F)c(F)c4F)cc3)c(=O)oc2c1" and print it.
Reply text: 340

Inquiry: Retrieve IC50 measured for "NS(=O)(=O)Oc1ccc2cc(-c3ccc([N+](=O)[O-])cc3)c(=O)oc2c1" and print it.
Reply text: 290

###

# System: MCF7
# Test: Cytotoxicity against human MCF7 cells assessed as growth inhibition after 120 hrs by MTT assay
# Format: functional
# Condition context: MCF7, 120 h
Each item that follows carries a reported GI50.

# Given smiles, Study system, Reported metric, Value observed
measured = [
    ("NS(=O)(=O)Oc1ccc2cc(-c3ccc(NC(=O)c4ccc(F)cc4)cc3)c(=O)oc2c1", "MCF7", "GI50", "> 100 µM"),
    ("NS(=O)(=O)Oc1ccc2cc(-c3ccc(NC(=O)c4ccc(F)c(F)c4)cc3)c(=O)oc2c1", "MCF7", "GI50", "> 100 µM"),
]

The record that follows has no GI50 shown yet.
Inquiry: Retrieve GI50 measured for "NS(=O)(=O)Oc1ccc2ccc(=O)oc2c1" and print it.
Reply text: > 100 µM

###

# System: MDA-MB-231
# Test: Cytotoxicity against human MDA-MB-231 cells assessed as growth inhibition after 120 hrs by MTT assay
# Assay type: functional
# Condition context: MDA-MB-231, 120 h
Each item that follows carries a reported GI50.

# Given smiles, Study system, GI50
records = [
    ("NS(=O)(=O)Oc1ccc2cc(-c3ccc(NC(=O)c4ccc(F)cc4)cc3)c(=O)oc2c1", "MDA-MB-231", "> 100 µM"),
    ("NS(=O)(=O)Oc1ccc2cc(-c3ccc(NC(=O)c4ccc(F)c(F)c4)cc3)c(=O)oc2c1", "MDA-MB-231", "> 100 µM"),
]

The record that follows has no GI50 shown yet.
Inquiry: Retrieve GI50 measured for "NS(=O)(=O)Oc1ccc2ccc(=O)oc2c1" and print it.
Reply text: > 100 µM
